The following compounds are listed with their measured T/C values.
Test system: L1210 leukemia ip in BDF1 mice, survival T/C
Experiment: NCI In Vivo Anticancer Drug Screen. Data for tumor model L1210 Leukemia (intraperitoneal) in B6D2F1 (BDF1) mice
Details: endpoint: mean survival time; dose: 100.0 mg/kg/injection; schedule: Q04DX003 (ip); vehicle: saline with Tween-80; higher = longer survival
Toxic doses and inconclusive results are not listed.

Please review the entries below; each comes with its answer.
[[record]]
compound = "Cc1ccc(NC(=O)Nc2ccc(C)c(NC(=O)Nc3ccc(C)c(Cl)c3)c2)cc1Cl"
measurement_label = "T/C"
obs_value = "88 % of control"

[[record]]
compound = "N#CC(C#N)=C/C=C/C=C/c1c(Cl)cccc1Cl"
measurement_label = "T/C"
obs_value = "92 % of control"

[[record]]
compound = "COC(=O)c1ccc(CBr)cc1"
measurement_label = "T/C"
obs_value = "96 % of control"

[[record]]
compound = "CC1Cc2ccccc2C1=O (centres undefined)"
measurement_label = "T/C"
obs_value = "98 % of control"

[[record]]
compound = "NC(=O)NC(CC(=O)O)C(=O)O (centres undefined)"
measurement_label = "T/C"
obs_value = "117 % of control"

[[record]]
compound = "C=C(C)COc1c(C)cc(C)cc1C=Nc1ccccc1"
measurement_label = "T/C"
obs_value = "109 % of control"

[[record]]
compound = "O=C(C=C(C(F)(F)F)C(F)(F)F)c1cccc(C(F)(F)F)c1"
measurement_label = "T/C"
obs_value = "89 % of control"

[[record]]
compound = "CCN(C(=O)c1cc(OC)c(OC)c(OC)c1)C1CCCCC1"
measurement_label = "T/C"
obs_value = "101 % of control"

[[record]]
compound = "O=C1CC(N2C(=O)C3C4CCC(CC4)C3C2=O)C(=O)N1 (centres undefined)"
measurement_label = "T/C"
obs_value = "96 % of control"

[[record]]
compound = "C=CCNC(=O)OCC"
measurement_label = "T/C"
obs_value = "100 % of control"


Kindly consider the entry below.
compound CCC(C)NC(=O)Oc1cccc(NC(=O)OC)c1 (centres undefined) , T/C observed: 95 % of control

Sourced from PubChem BioAssay AID248
